src = patent US8063221B2

system: S. aureus Smith; assay: Antibacterial activity (MIC), S. aureus; format: cell-based; conditions: Staphylococcus aureus, Table 2; S. aureus Smith; read-out: Antimicrobial MIC [μM] S. aureus
propertyMeasured: MIC

Look over these answered cases.
[
  {
    "smilesStr": "C[C@H]1COc2c(NCCCn3ccnc3)c(F)c(N)c3c(=O)c(C(=O)O)cn1c23",
    "experimentalValue": "0.5 to 10 µM"
  },
  {
    "smilesStr": "Nc1c(F)c(NCCCc2ccccc2)c2c3c1c(=O)c(C(=O)O)cn3CCO2",
    "experimentalValue": "10 to 50 µM"
  },
  {
    "smilesStr": "Nc1c(F)c(NC(=O)CCc2ccccc2)c(F)c2c1c(=O)c(C(=O)O)cn2C1CC1",
    "experimentalValue": "0.5 to 10 µM"
  },
  {
    "smilesStr": "CC1(C)COc2c(NCCCN3CCCC3=O)c(F)c(N)c3c(=O)c(C(=O)O)cn1c23",
    "experimentalValue": "> 50 µM"
  },
  {
    "smilesStr": "CC1(C)COc2c(NCCNc3cccc4ccccc34)c(F)c(N)c3c(=O)c(C(=O)O)cn1c23",
    "experimentalValue": "10 to 50 µM"
  },
  {
    "smilesStr": "COc1c(NCCNc2ccccn2)c(F)c(N)c2c(=O)c(C(=O)O)cn(C)c12",
    "experimentalValue": "10 to 50 µM"
  },
  {
    "smilesStr": "CC1(C)CCOc2c(NCCNc3ccccn3)c(F)c(N)c3c(=O)c(C(=O)O)cn1c23",
    "experimentalValue": "> 50 µM"
  },
  {
    "smilesStr": "CSc1c(F)c(NCCNc2ccccn2)c(F)c2c1c(=O)c(C(=O)O)cn2C1CC1",
    "experimentalValue": "0.5 to 10 µM"
  },
  {
    "smilesStr": "CC1(C)COc2c(NCCCn3cnc4ccccc43)c(F)c(N)c3c(=O)c(C(=O)O)cn1c23",
    "experimentalValue": "0.5 to 10 µM"
  },
  {
    "smilesStr": "COc1c(OCCNc2ccccn2)c(F)c(N)c2c(=O)c(C(=O)O)cn(C3CC3)c12",
    "experimentalValue": "< 0.5 µM"
  }
]

From here, focus on the item given below.
Query MIC for `Nc1c(F)c(NCCNc2ccccn2)c2c3c1c(=O)c(C(=O)O)cn3[C@@H](CF)CO2`
< 0.5 µM
